molecular target: CS2 on an ETEC strain (enterotoxigenic Escherichia coli); assay: cell-based or functional assay
value-kind: MRHA IC100 (µg/mL)
Value expressed in µg/mL; do not type the unit.

Example cases with answers are listed next.
binder: VHH antibody 2R23 (monomeric nanobody) (VHH, Yeast-library clone, expressed in the E. coli periplasm) VHH: QVQLQESGGGLVQAGGSLRLSCAASGYIFWSYGYMGWYRQAPGKERELVATISRGGTTNYADSVKGRFTISRDNAKNTVYLQMNSLKPEDTAVYYCAAGRYAFGYFKYWGQGTQVTVSS
measurement: 200
--
binder: VHH antibody 2R215 (monomeric nanobody) (VHH, Yeast-library clone, expressed in the E. coli periplasm and purified by Ni-NTA; also called monomeric 2R215; monomeric VHH 2R215) VHH: QVQLQESGGGLVQAGGSLRLSCAASGNIFQDAEMGWYRQAPGKEREFVATIAYGGNTNYADSVKGRFTISRDNAKNTVYLQMNSLKPEDTAVYYCAVYTGVYYDRTTGGYVAFEYWGQGTQVTVSS
measurement: 6.25
--
binder: VHH antibody 1D7 (monomeric nanobody) (VHH) VHH: EVQLVESGGGLVQAGGSLTLSCAASERTFSYYVMAWFRQAPGKEREFVAGISMSGDSTKYADSVKGRFTISRDNAENTGYLQMNGLKPEDTAVYYCAADRDIRGNFRSWGRGTQVTVSS
measurement: 50

Lab note: measured MRHA IC100 of VHH antibody 1H4 (monomeric nanobody) (VHH) VHH: EVQLVESGGGLVQAGGSLRLSCAASSRTFNHYNIGWFRQAPGKEREFAAAITWNGRSTLYADSVKGRFTISRDNAKNTVYLQMNSLKPEDTAVYYCATLTTWEHKWEYNSQGQGTQVTVSS was 100
